Measured values drawn from ChEMBL document CHEMBL4715885 for this set.

Experiment: Clearance in Balb/c mouse at 50 mg/kg, po
Format: ADME, organism-based
Conditions: in vivo

molecule	unit.descriptor	CL/F
O=C(NO)c1ccc(CCCN2CCC(CN[C@H]3C[C@@H]3c3ccccc3)CC2)cc1 (racemic)	mL/min/kg	233

* * *

Tested on: MM1.S
Assay: Antiproliferative activity against human MM1.S cells assessed as reduction in cell viability after 144 hrs
Assay type: functional, cell-based
pEC50: −log10 of the molar value.
The entries below come with measured pEC50 values attached.

molecule	measured.on	pEC50
Cc1noc(C)c1-c1ccc([C@H]2C[C@@H]2NCC2CCN(CCCc3ccc(C(=O)NO)cc3)CC2)cc1 (racemic)	MM1.S	7.96
O=C(NO)c1ccc(CCCN2CCC(CN[C@@H]3C[C@H]3c3ccccc3)CC2)cc1	MM1.S	8.52
O=C(NO)c1ccc(CCN2CCC(CN[C@H]3C[C@@H]3c3ccccc3)CC2)cc1 (racemic)	MM1.S	7.55
O=C(NO)c1cnc(CCCN2CCC(CN[C@H]3C[C@@H]3c3ccccc3)CC2)s1 (racemic)	MM1.S	7.20
O=C(NO)c1ccc(CCCN2CC(CN[C@H]3C[C@@H]3c3ccccc3)C2)cc1 (racemic)	MM1.S	7.60
O=C(NO)c1ccc(CCCN2CCC(CN[C@H]3C[C@@H]3c3ccccc3)CC2)cc1	MM1.S	8.40
